Target: AgCyk3
Assay: SPOT peptide array binding signal intensity (averaged, normalized) (arbitrary units (background-subtracted, floor 0; scale differs between SH3 domains)); higher = stronger binding of the SH3 domain to the peptide
For each record, write down the corresponding SPOT peptide array binding signal intensity.

// sample NENKKLPPAPTVFGL , its SPOT peptide array binding signal intensity was ≤ 0

GET /value?item= TYNRTAFQIPGDQSI &field=SPOT peptide array binding signal intensity returns ≤ 0

Measured SPOT peptide array binding signal intensity of PLRRTVMSLPGNHDI : ≤ 0

Value of SPOT peptide array binding signal intensity reported for the binder PSTMDFPKLPSFQNS is ≤ 0

# SPOT peptide array binding signal intensity (binder: NPTKSPPPPPSPSTM ) is ≤ 0

Entry PPIPNAPLSPAPAVP ; SPOT peptide array binding signal intensity = ≤ 0

Lookup result for NSVPIMPTLPPRPYI ; measured SPOT peptide array binding signal intensity: 9.5

The value of SPOT peptide array binding signal intensity measured for the binder GDHPKGPPPPPPPPD turned out to be ≤ 0

Item: TTNRGPPPLPPRANV | SPOT peptide array binding signal intensity: 6

Per the records, this binder ( RAPPPVPKKPSSRIA ) has SPOT peptide array binding signal intensity equal to ≤ 0

Note to self: SPOT peptide array binding signal intensity recorded for RSLRKRPTSPSISGS was 23

Memo: NPLPKEPRLPKRKVA , reported SPOT peptide array binding signal intensity: 1
